# Test system: strain 20
# Experimental protocol: MIC determination, broth microdilution (CLSI)
# Format: cell-based
Endpoint: MIC (µg/mL)
Write the answer as a number in µg/mL, unit excluded.

Task: Please look at this molecule and report its MIC: C[C@H]1[C@H](NC(=O)/C(=N\OCCOc2ccc(C(=N)N)nc2)c2csc(N)n2)C(=O)N1S(=O)(=O)O
Output: 0.125

Task: Please look at this molecule and report its MIC: C[C@H]1[C@H](NC(=O)/C(=N\OCCOc2ccc(C(=N)N)cc2N)c2csc(N)n2)C(=O)N1S(=O)(=O)O
Output: 8

Task: Please look at this molecule and report its MIC: C[C@H]1[C@H](NC(=O)/C(=N\OCCSc2ccc(C(=N)N)cc2)c2csc(N)n2)C(=O)N1S(=O)(=O)O
Output: 0.25

Task: Please look at this molecule and report its MIC: C[C@H]1[C@H](NC(=O)/C(=N\OCCOc2nc(C(=N)N)cs2)c2csc(N)n2)C(=O)N1S(=O)(=O)O
Output: 0.25

Task: Please look at this molecule and report its MIC: CC1(C)[C@H](NC(=O)/C(=N\OCCOc2ccc(C(=N)N)c(O)c2)c2csc(N)n2)C(=O)N1OS(=O)(=O)O
Output: 0.25

Task: Please look at this molecule and report its MIC: C[C@H]1[C@H](NC(=O)/C(=N\OCCOc2cnc(C(=N)N)cn2)c2csc(N)n2)C(=O)N1S(=O)(=O)O
Output: 0.25

Task: Please look at this molecule and report its MIC: C[C@H]1[C@H](NC(=O)/C(=N\OCCOc2ccc(C(=N)N)cn2)c2csc(N)n2)C(=O)N1S(=O)(=O)O
Output: 0.25

Task: Please look at this molecule and report its MIC: CC1(C)[C@H](NC(=O)/C(=N\OCCOc2ccc(C(=N)N[C@H]3CCNC3)cc2)c2csc(N)n2)C(=O)N1OS(=O)(=O)O
Output: 0.25

Then this molecule:
Task: Please look at this molecule and report its MIC: N=C(N)c1ccc(OCCO/N=C(\C(=O)NC2C(=O)N(OS(=O)(=O)O)C23CCCC3)c2csc(N)n2)cc1 (centres unmarked)
Output: 1

----------
# Tested on: P. aeruginosa PAO1
# Experimental protocol: MIC determination, broth microdilution (CLSI)
# Type: cell-based
# Assay conditions: strain 6
Endpoint: strain 6 MIC (mg/L)
Write the answer as a number in mg/L, unit excluded.

These solved cases illustrate the format of a correct answer.
Task: Please look at this molecule and report its strain 6 MIC: C[C@H]1[C@H](NC(=O)/C(=N\OC(COc2ccc(C(=N)N)cc2)C(=O)O)c2csc(N)n2)C(=O)N1S(=O)(=O)O (mixture of isomers) [Example 26A]
Output: 1

Task: Please look at this molecule and report its strain 6 MIC: C[C@H]1[C@H](NC(=O)/C(=N\OC(COc2ccc(C(=N)N)cc2)C(=O)O)c2csc(N)n2)C(=O)N1S(=O)(=O)O (mixture of isomers) [Example 26B]
Output: 4

Then this molecule:
Task: Please look at this molecule and report its strain 6 MIC: CC1(C)[C@H](NC(=O)/C(=N\OCC(Oc2ccc(C(=N)N)cc2)C(=O)O)c2csc(N)n2)C(=O)N1OS(=O)(=O)O (single isomer, unassigned) [Example 87B]
Output: 16

----------
# Tested on: P. aeruginosa PAO1
# Experimental protocol: MIC determination, broth microdilution (CLSI)
# Type: cell-based
# Assay conditions: Pseudomonas aeruginosa, PAO1, strain 6
The following molecules are shown together with reported MIC values.
Write the answer as a number in µg/mL, unit excluded.

Task: Please look at this molecule and report its MIC: N=C(N)c1ccc(OCCO/N=C(\C(=O)N[C@@H]2C(=O)N(S(=O)(=O)O)[C@@H]2C(N)=O)c2csc(N)n2)cc1 [Example 66]
Output: 32

----------
The following compounds are shown together with reported MIC values.
# Tested on: P. aeruginosa 2297 (AmpC wt)
# Experimental protocol: MIC determination, broth microdilution (CLSI)
# Assay type: cell-based
# Assay conditions: Pseudomonas aeruginosa, strain 7
Write the answer as a number in µg/mL, unit excluded.

These solved cases illustrate the format of a correct answer.
Task: Please look at this compound and report its MIC: CC1(C)[C@H](NC(=O)/C(=N\OCCOc2ccc(C(=N)N3CCNCC3)cc2)c2csc(N)n2)C(=O)N1OS(=O)(=O)O
Output: 16

Task: Please look at this compound and report its MIC: CC(C)(N)CNC(=N)c1ccc(OC[C@H](O/N=C(\C(=O)N[C@@H]2C(=O)N(OS(=O)(=O)O)C2(C)C)c2csc(N)n2)C(=O)O)cc1
Output: 2

Task: Please look at this compound and report its MIC: CC1(C)[C@H](NC(=O)/C(=N\OCCOc2ccc(C(=N)NCCNC(=N)N)cc2)c2csc(N)n2)C(=O)N1OS(=O)(=O)O
Output: 4

Next:
Task: Please look at this compound and report its MIC: CC1(C)[C@H](NC(=O)/C(=N\OCCOc2ccc(C(=N)NC3CCNCC3)cc2)c2csc(N)n2)C(=O)N1OS(=O)(=O)O
Output: 2

Task: Please look at this compound and report its MIC: C[C@H]1[C@H](NC(=O)/C(=N\OCCCOc2ccc(C(=N)N)cc2)c2csc(N)n2)C(=O)N1S(=O)(=O)O
Output: 8

Task: Please look at this compound and report its MIC: CC1(C)[C@H](NC(=O)/C(=N\OCCOc2ccc(C(=N)N)nn2)c2csc(N)n2)C(=O)N1OS(=O)(=O)O
Output: 16

Task: Please look at this compound and report its MIC: CC1(C)[C@H](NC(=O)/C(=N\OCCOc2ccc(C(=N)NC(CN)CN)cc2)c2csc(N)n2)C(=O)N1OS(=O)(=O)O
Output: 2

Task: Please look at this compound and report its MIC: CC1(C)[C@H](NC(=O)/C(=N\OCCOc2ccc(C(=N)N)cc2)c2csc(N)n2)C(=O)N1OCS(=O)(=O)O
Output: 32

Task: Please look at this compound and report its MIC: CN(C)CCNC(=N)c1ccc(OCCO/N=C(\C(=O)N[C@@H]2C(=O)N(OS(=O)(=O)O)C2(C)C)c2csc(N)n2)cc1
Output: 8

Task: Please look at this compound and report its MIC: C[C@H]1[C@H](NC(=O)/C(=N\OCCOc2ccc(C(=N)N)cc2CO)c2csc(N)n2)C(=O)N1S(=O)(=O)O
Output: 16

Task: Please look at this compound and report its MIC: C[C@H]1[C@H](NC(=O)/C(=N\OCCOc2ccc(C(=N)N)cn2)c2csc(N)n2)C(=O)N1S(=O)(=O)O
Output: 4

Task: Please look at this compound and report its MIC: CC1(C)[C@H](NC(=O)/C(=N\OCCOc2ccc(C(=N)NCc3ccccn3)cc2)c2csc(N)n2)C(=O)N1OS(=O)(=O)O
Output: 16

----------
# Tested on: B. fragilis 6688
# Experimental protocol: MIC determination, broth microdilution (CLSI)
# Assay type: cell-based
# Assay conditions: Bacteroides fragilis, 6688, strain 15; broth microdilution; read-out: MIC strain 15 (B. fragilis 6688)
The following compounds are shown together with reported MIC values.
Report field: quantity (unit follows the number).

Task: Please look at this compound and report its MIC: C[C@H]1[C@H](NC(=O)/C(=N\OCCCOc2ccc(NC(=N)N)cc2)c2csc(N)n2)C(=O)N1S(=O)(=O)O [Example 51]
Output: 16 µg/mL

Task: Please look at this compound and report its MIC: CC1(C)[C@H](NC(=O)/C(=N\OCCOc2ccc(C(=N)N)cc2)c2csc(N)n2)C(=O)N1OS(=O)(=O)O [Example 41]
Output: 2 µg/mL

Task: Please look at this compound and report its MIC: CC1(C)[C@H](NC(=O)/C(=N\OCCOc2ccc(C(=N)NCCCN)cc2)c2csc(N)n2)C(=O)N1OS(=O)(=O)O [Example 83]
Output: 4 µg/mL

Then this compound:
Task: Please look at this compound and report its MIC: CC1(C)[C@H](NC(=O)/C(=N\OCCOc2ccc(C3=NCC(N)CN3)cc2)c2csc(N)n2)C(=O)N1OS(=O)(=O)O (stereo partly shown) [Example 86]
Output: 4 µg/mL

----------
# Tested on: S. maltophilia ICB7569
# Experimental protocol: MIC determination, broth microdilution (CLSI)
# Assay type: cell-based
# Assay conditions: strain 10
The following compounds are shown together with reported strain 10 MIC values.
Write the answer as a number in µg/mL, unit excluded.

These solved cases illustrate the format of a correct answer.
Task: Please look at this compound and report its strain 10 MIC: CC1(C)[C@H](NC(=O)/C(=N\OC(COc2ccc(C(=N)N)nc2)C(=O)O)c2csc(N)n2)C(=O)N1OS(=O)(=O)O (mixture of isomers) [Example 36B]
Output: 16

Task: Please look at this compound and report its strain 10 MIC: CC1(C)[C@H](NC(=O)/C(=N\OC(COc2ccc(C(=N)N)cc2)C(=O)O)c2csc(N)n2)C(=O)N1OS(=O)(=O)O (mixture of isomers) [Example 27B]
Output: 8

Task: Please look at this compound and report its strain 10 MIC: CC1(C)[C@H](NC(=O)/C(=N\OC(COc2ccc(C(=N)N)c(O)c2)C(=O)O)c2csc(N)n2)C(=O)N1OS(=O)(=O)O (mixture of isomers) [Example 34A]
Output: 8

Task: Please look at this compound and report its strain 10 MIC: CC1(C)[C@H](NC(=O)/C(=N\OC(COc2ccc(C(=N)N)nc2)C(=O)O)c2csc(N)n2)C(=O)N1OS(=O)(=O)O (mixture of isomers) [Example 36A]
Output: 2

Task: Please look at this compound and report its strain 10 MIC: CC1(C)[C@H](NC(=O)/C(=N\O[C@@H](COc2ccc(C(=N)NC3CC3N)cc2)C(=O)O)c2csc(N)n2)C(=O)N1OS(=O)(=O)O (single isomer, unassigned) [Example 100A]
Output: 8

Task: Please look at this compound and report its strain 10 MIC: CC1(C)[C@H](NC(=O)/C(=N\OC(CO)COc2ccc(C(=N)N)cc2)c2csc(N)n2)C(=O)N1OS(=O)(=O)O (mixture of isomers) [Example 45A]
Output: 8

Next:
Task: Please look at this compound and report its strain 10 MIC: CC1(C)[C@H](NC(=O)/C(=N\OC(COc2ccc(C(=N)NCCN)cc2)C(=O)O)c2csc(N)n2)C(=O)N1OS(=O)(=O)O (mixture of isomers) [Example 44B]
Output: 16

Task: Please look at this compound and report its strain 10 MIC: CC1(C)[C@H](NC(=O)/C(=N\OC(COc2ccc(C(=N)NCCN)cc2)C(=O)O)c2csc(N)n2)C(=O)N1OS(=O)(=O)O (mixture of isomers) [Example 44A]
Output: 2

Task: Please look at this compound and report its strain 10 MIC: CC1(C)[C@H](NC(=O)/C(=N\OC(CCO)COc2ccc(C(=N)N)cc2)c2csc(N)n2)C(=O)N1OS(=O)(=O)O (single isomer, unassigned) [Example 81B]
Output: 16

Task: Please look at this compound and report its strain 10 MIC: CC1(C)[C@H](NC(=O)/C(=N\OC(COc2ccc(C(=N)N)c(O)c2)C(=O)O)c2csc(N)n2)C(=O)N1OS(=O)(=O)O (mixture of isomers) [Example 34B]
Output: 32

Task: Please look at this compound and report its strain 10 MIC: CC1(C)[C@H](NC(=O)/C(=N\OC(CO)COc2ccc(C(=N)N)cc2)c2csc(N)n2)C(=O)N1OS(=O)(=O)O (mixture of isomers) [Example 45B]
Output: 32

Task: Please look at this compound and report its strain 10 MIC: CC1(C)[C@H](NC(=O)/C(=N\O[C@@H](COc2ccc(C(=N)NC3CC3N)cc2)C(=O)O)c2csc(N)n2)C(=O)N1OS(=O)(=O)O (single isomer, unassigned) [Example 100B]
Output: 32
